src = patent US20150104459A1

measurementTarget: recombinant soluble homotrimeric HA of A/Japan/305/57 (H2N2) (Influenza A virus A/Japan/305/1957 (H2N2))
assayExplanation: HA microarray, BCC supernatant
appliedConditions: remark: other sources report otherwise
assayMetric: Trimeric HA Binding RLU (RLU)

binder	assayMetric	assayResult
TCN-527 (5086_C06) (antibody, V domains shown) VH: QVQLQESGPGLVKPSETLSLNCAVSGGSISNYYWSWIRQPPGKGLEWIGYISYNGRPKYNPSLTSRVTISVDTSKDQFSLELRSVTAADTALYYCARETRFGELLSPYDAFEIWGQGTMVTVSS VL: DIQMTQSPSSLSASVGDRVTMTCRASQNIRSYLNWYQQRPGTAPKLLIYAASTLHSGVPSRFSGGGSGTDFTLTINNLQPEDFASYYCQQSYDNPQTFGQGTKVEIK	Trimeric HA Binding RLU	19300
TCN-550 (5096_F06) (antibody, V domains shown) VH: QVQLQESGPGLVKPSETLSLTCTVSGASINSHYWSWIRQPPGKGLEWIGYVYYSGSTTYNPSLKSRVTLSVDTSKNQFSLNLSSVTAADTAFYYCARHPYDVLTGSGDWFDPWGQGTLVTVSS VL: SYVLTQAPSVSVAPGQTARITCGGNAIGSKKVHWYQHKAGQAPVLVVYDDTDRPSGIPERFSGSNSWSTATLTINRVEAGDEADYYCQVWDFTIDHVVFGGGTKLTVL	Trimeric HA Binding RLU	201
